tested on: Yap1 mRNA; experiment: Antisense inhibition of human Yap1 in A-431 cells by cEt gapmers, single dose (Example 3, RTS36584); type: cell-based; settings: Table 29; Yap1 mRNA as percent of untreated control; 3-10-3 cEt gapmers targeting SEQ ID NO.: 1, and 2
Strand notation (5' to 3'): a small letter for the sugar, then the base; units joined by * are phosphorothioate-linked, units joined directly phosphodiester-linked; [ ] holds rarer units or linkages, { } end groups; capitals alone tell only the bases. k = constrained ethyl (cEt); [5mC] = 5-methylcytosine; d = 2'-deoxy (DNA)
YAP1 (% UTC) reference
Number in % UTC, nothing else.

INSERT INTO assay_data (substance, reported) VALUES
  ('1074287 (antisense kA*k[5mC]*kT*dG*dA*dT*dT*d[5mC]*dT*d[5mC]*dT*dG*dG*kT*kT*k[5mC]) [compound 1074287]', 11),
  ('1075119 (kA*kG*kG*dG*dA*dA*dT*dA*dT*dG*dT*dT*dA*kA*kT*k[5mC]; antisense) [compound 1075119]', 8),
  ('1076303 (k[5mC]*kT*kA*dA*dT*dA*dA*dG*d[5mC]*d[5mC]*dT*d[5mC]*dA*k[5mC]*k[5mC]*kT; antisense) [compound 1076303]', 34),
  ('1074511 (kG*kA*kT*dA*d[5mC]*dA*dT*dT*d[5mC]*d[5mC]*dA*d[5mC]*dT*kA*k[5mC]*k[5mC]; antisense) [compound 1074511]', 9),
  ('1075151 (kT*kT*kT*dA*dA*dA*dA*dG*dT*dA*d[5mC]*d[5mC]*dA*kG*k[5mC]*kG; antisense) [compound 1075151]', 60),
  ('1075951 (antisense k[5mC]*kA*k[5mC]*dG*dG*dA*dA*dG*dA*dG*d[5mC]*dT*dT*kG*k[5mC]*kA) [compound 1075951]', 34);

Ask: What value of YAP1 (% UTC) has been reported for the following substance? 1074991 (antisense kA*kA*kT*dT*dA*dT*dT*dT*dG*dA*d[5mC]*dT*d[5mC]*k[5mC]*k[5mC]*k[5mC]) [compound 1074991]
Result: 60

Ask: Fill blank: measured YAP1 (% UTC) of the substance 1076239 (kG*kT*kT*dT*dA*dA*dA*dA*dA*dA*dA*dA*d[5mC]*kG*kG*kG; antisense) [compound 1076239] is ____.
Result: 75

Ask: Which measured YAP1 (% UTC) value corresponds to 1075727 (kT*kT*kA*dT*d[5mC]*dG*dG*dA*dG*dG*d[5mC]*dT*dT*k[5mC]*kG*k[5mC]; antisense) [compound 1075727] ?
Result: 31

---

Measured Yap1 mRNA, % UTC, listed per entry.
System: Yap1 mRNA
Experiment: Dose-dependent inhibition of human Yap1 in A-431 cells (Example 8, 10,000 cells per well, RTS4814)
Type: cell-based
Conditions: 125.0 nM; A-431 cells, 10,000 cells per well, free uptake, approximately 48 hours, RTS4814
Protocol: Modified oligonucleotides described in the studies above were tested at various doses in A-431 cells. […] After approximately 48 hours, Yap1 mRNA levels were measured as previously described using the Human Yap1 primer-probe set RTS4814. Yap1 mRNA levels were normalized to total RNA content, as measured by RIBOGREEN®. […] IC50s were calculated using a linear regression on a log/linear plot of the data in excel.
Strand notation (5' to 3'): a small letter for the sugar, then the base; units joined by * are phosphorothioate-linked, units joined directly phosphodiester-linked; [ ] holds rarer units or linkages, { } end groups; capitals alone tell only the bases. k = constrained ethyl (cEt); [5mC] = 5-methylcytosine; d = 2'-deoxy (DNA)
Use % UTC as the unit, but write only the number.

INSERT INTO assay_data (substance, result_type, reported) VALUES
  ('1076552 (kA*kT*kG*dT*dA*dT*dA*dA*dA*dT*dA*d[5mC]*d[5mC]*kA*kG*kG; antisense) [compound 1076552]', 'Yap1 mRNA, % UTC', 40),
  ('1075053 (antisense kA*kA*kT*dA*dT*dA*dT*dA*d[5mC]*dT*dT*dG*dA*kT*k[5mC]*k[5mC]) [compound 1075053]', 'Yap1 mRNA, % UTC', 24);

In the following, a different substance is considered.
Ask: For the substance 1076064 (kT*kA*kT*dG*dA*dA*d[5mC]*dA*dA*dT*dG*dT*dA*k[5mC]*kT*k[5mC]; antisense) [compound 1076064] , what Yap1 mRNA, % UTC is on record?
Result: 26

---

As shown below, each of these substances has a reported Retic value.
assay: Cynomolgus monkey tolerability, hematology (Example 34); type: in vivo, cynomolgus monkeys; conditions: cynomolgus monkey, in vivo, sc, 35 mg/kg
Please reply with the bare figure in % and do not write the unit itself.

INSERT INTO results (substance, units_text, reported) VALUES
  ('1197270 (TTAAAGTGTATGTCAG; cEt gapmer with 2''-OMe nucleoside, phosphorothioate, further chemistry not given here) [compound 1197270]', '%', 1.1);

Ask: State the recorded Retic for this entry: 1198605 (GTAATATTGCAATCTG; modified gapmer, further chemistry not given here) [compound 1198605]
Result: 1.1

Ask: Requested field: Retic. Item: 1198623 (CTAAGTAAGGTTTCCC; modified gapmer, further chemistry not given here) [compound 1198623]
Result: 1.0

Ask: Report Retic for 1198728 (TATTAGAGTATGTGGC; modified gapmer, further chemistry not given here) [compound 1198728] please.
Result: 1.3

---

system: Yap1 mRNA; assay: Dose-dependent inhibition of human Yap1 in SNU-449 cells (Example 9, RTS36584); assay type: cell-based; settings: 500.0 nM, free uptake, approximately 48 hours
Strand notation (5' to 3'): a small letter for the sugar, then the base; units joined by * are phosphorothioate-linked, units joined directly phosphodiester-linked; [ ] holds rarer units or linkages, { } end groups; capitals alone tell only the bases. e = 2'-O-(2-methoxyethyl) (MOE); k = constrained ethyl (cEt); [5mC] = 5-methylcytosine; d = 2'-deoxy (DNA); m = 2'-O-methyl
Result Type: % UTC (Yap1 mRNA)
Entry format: amount then unit.

INSERT INTO measurements (substance, test_system, reported) VALUES
  ('1198673 (kG*kA*dT*dT*dT*dA*dG*dG*dA*dT*dG*d[5mC]*kA*eT*kG*eG; antisense) [compound 1198673]', 'Yap1 mRNA', '8 % UTC'),
  ('1198578 (GCTTTGGAAGATCTGA; modified gapmer, chemistry not fully specified) [compound 1198578]', 'Yap1 mRNA', '25 % UTC'),
  ('1074728 (antisense kT*kG*kA*dG*dG*dT*dA*dT*dA*dA*d[5mC]*dT*dG*kG*kG*k[5mC]) [compound 1074728]', 'Yap1 mRNA', '19 % UTC'),
  ('1198959 (kA*kG*dT*dG*dT*dA*dT*dG*dT*d[5mC]*dA*kG*dA*kA*dG*kA; antisense) [compound 1198959]', 'Yap1 mRNA', '8 % UTC'),
  ('1200784 (kT*kG*kT*d[5mC]*dT*mC*dA*dT*dG*d[5mC]*d[5mC]*dT*dT*kA*kT*kA; antisense) [compound 1200784]', 'Yap1 mRNA', '26 % UTC');

As a next step, examine the substance that follows.
Ask: Bench note: what % UTC (Yap1 mRNA) did 1074464 (kT*kT*kA*dG*dA*dG*dT*dA*dT*dG*dT*dG*dG*k[5mC]*kA*kA) [compound 1074464] show?
Result: 19 % UTC

---

tested on: Yap1 mRNA; test: Dose-dependent inhibition of human Yap1 in A-431 cells (Example 6, 5,000 cells per well, RTS4814); format: cell-based; details: Table 53; A-431 cells, Yap1 mRNA; linear regression on a log/linear plot
pIC50: −log10 of the molar value. Strand notation (5' to 3'): a small letter for the sugar, then the base; units joined by * are phosphorothioate-linked, units joined directly phosphodiester-linked; [ ] holds rarer units or linkages, { } end groups; capitals alone tell only the bases. k = constrained ethyl (cEt); [5mC] = 5-methylcytosine; d = 2'-deoxy (DNA)
Result Type: pIC50

Example results:
INSERT INTO assay_data (substance, reported) VALUES
  ('715486 (kT*kA*k[5mC]*dT*dT*d[5mC]*dA*dT*dA*dG*d[5mC]*dT*dT*kA*kT*kA; antisense) [compound 715486]', '< 5.40'),
  ('715577 (kG*k[5mC]*kA*dT*dT*d[5mC]*dA*d[5mC]*dA*dG*dA*dG*dT*kT*kA*kA; antisense) [compound 715577]', '< 5.40');

Now for another entry.
Ask: pIC50 lookup needed for 715415 (k[5mC]*kG*kA*dA*d[5mC]*dA*dT*dG*d[5mC]*dT*dG*dT*dG*kG*kA*kG; antisense) [compound 715415] , thanks.
Result: 5.74

Cited source for all entries: patent US11214803B2
